List of composite z-score values.
- Test system: Fibrinogen (Alexa647-labelled)
- test details: Alexa647-fibrinogen binding to printed small molecules – biochemical, small-molecule microarray, 635/667 nm fluorescence, artefact control for SMM control-protein annotation, profiling panel (AID 1131);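 note: z-score merges 667 nm fluorescence with per-spot signal-to-noise over triplicate slides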
- applied conditions: fibrinogen-A647 binding fluorescence, higher = more signal
property name: composite z-score

> print(dat)
                                   molecule      property.name  readout.value
1  O=C(NCc1ccccc1)[C@@H]1c2ccccc2C(=O)N(Cc2ccc(OC(F)(F)F)cc2)[C@H]1c1ccc(CO)cc1  composite z-score         -0.222
2  CC1CC/C=C\[C@H]2OC34C=CCN(c5ccc6ccccc6c5)C(=O)[C@H]3N(C(C)CO)C(=O)[C@@H]4C2C(=O)O1 (some centres undefined)  composite z-score          -1.17
3  O=C1[C@H]2C=C(I)[C@H](C[C@@H]2OCCCCCCO)[C@@]12CO2  composite z-score         -0.312
4  CC(C)(C)N1CC=CC23O[C@@H]4C=CCCOC(=O)C4[C@H]2C(=O)N(CCCCCCO)[C@@H]3C1=O (some centres undefined)  composite z-score         -0.959

###

List of z-score values.
- target desc: NADPH oxidase 2 (Homo sapiens) (UniProt P04839)
- Sequence (P04839 whole entry, looked up): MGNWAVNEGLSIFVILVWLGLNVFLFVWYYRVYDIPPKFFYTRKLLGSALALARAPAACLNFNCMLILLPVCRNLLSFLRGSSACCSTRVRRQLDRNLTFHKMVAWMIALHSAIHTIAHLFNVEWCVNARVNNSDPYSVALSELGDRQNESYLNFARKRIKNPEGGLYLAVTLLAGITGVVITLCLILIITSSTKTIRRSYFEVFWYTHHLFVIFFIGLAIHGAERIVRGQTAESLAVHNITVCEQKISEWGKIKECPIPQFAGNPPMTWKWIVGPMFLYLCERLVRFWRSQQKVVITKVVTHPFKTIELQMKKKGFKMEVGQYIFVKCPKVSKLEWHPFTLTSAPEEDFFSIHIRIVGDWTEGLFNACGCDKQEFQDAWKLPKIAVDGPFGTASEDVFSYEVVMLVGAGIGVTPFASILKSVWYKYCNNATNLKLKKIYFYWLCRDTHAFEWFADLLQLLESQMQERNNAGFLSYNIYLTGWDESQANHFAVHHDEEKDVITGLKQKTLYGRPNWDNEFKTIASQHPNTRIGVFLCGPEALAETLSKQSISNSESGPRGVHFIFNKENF
- test details: compounds shifting NOX2 Amplex Red fluorescence – cell-based, HEK293-NOX2, PMA-stimulated, NOX inhibitor project, primary screen (AID 1159); note: test concentration not given here
- applied conditions: 45 min, higher = more signal, called active from +8 up or from −8 down
property name: z-score

molecule	target desc	property name	readout value
CCCCC(=C=CC[C@H](O)c1ccc(CO)o1)CCO	NADPH oxidase 2 (Homo sapiens) (UniProt P04839)	z-score	0.802
C=C(CCCC)/C(=C/C[C@@H](OC(C)=O)c1ccc(CO)o1)c1cnc2ccccc2c1	NADPH oxidase 2 (Homo sapiens) (UniProt P04839)	z-score	-0.383
C=CCNC(=O)[C@H]1[C@@H]2C(=O)O[C@@H](c3ccccc3)[C@@H](c3ccccc3)N2[C@@H](c2ccc(OCCO)cc2)[C@]12C(=O)Nc1ccccc12	NADPH oxidase 2 (Homo sapiens) (UniProt P04839)	z-score	1.87
CN1C(=O)[C@@H]2[C@@H](CC(COc3ccccc3)=C3[C@@H](CCc4ccccc4)OB(O)C[C@@H]32)C1=O	NADPH oxidase 2 (Homo sapiens) (UniProt P04839)	z-score	0.693
COC(=O)[C@]1(Cc2ccccc2)N=C(c2ccc(OCCCO)cc2)O[C@@H]1c1ccccc1CN=[N+]=[N-]	NADPH oxidase 2 (Homo sapiens) (UniProt P04839)	z-score	-4.51
COCCOC(=O)N1C(=O)[C@@]2(c3cc(C#Cc4ccc(OC)cc4)ccc31)[C@H](c1ccc(OCCO)cc1)N1[C@H](c3ccccc3)[C@H](c3ccccc3)OC(=O)[C@H]1[C@@H]2C(=O)NC[C@H](O)c1ccccc1	NADPH oxidase 2 (Homo sapiens) (UniProt P04839)	z-score	1.27
CCCCC(O)C1C=CC2C(=O)N(c3ccccc3)C(=O)C2N1Nc1ccccc1 (configuration not stated)	NADPH oxidase 2 (Homo sapiens) (UniProt P04839)	z-score	-1.17

###

List of composite z-score values.
- target desc: Follistatin-related protein 3 (Homo sapiens) (UniProt O95633)
- Sequence (O95633 whole entry, looked up): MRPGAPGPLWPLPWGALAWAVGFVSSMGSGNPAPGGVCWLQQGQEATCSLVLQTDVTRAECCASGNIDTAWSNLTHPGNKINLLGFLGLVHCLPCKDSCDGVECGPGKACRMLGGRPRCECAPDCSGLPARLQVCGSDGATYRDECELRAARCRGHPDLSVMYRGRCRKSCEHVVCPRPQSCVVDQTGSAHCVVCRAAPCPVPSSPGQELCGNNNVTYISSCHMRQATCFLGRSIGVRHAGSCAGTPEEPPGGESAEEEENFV
- test details: compounds binding follistatin-related protein 3 – biochemical, small-molecule microarray, 635 nm fluorescence, primary screen (AID 1105);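 note: score merges emission near 667 nm and signal to noise per printed spot across three slides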
- applied conditions: FSTL3 binding, higher = more signal
property name: composite z-score

compound	property name	readout value
[N-]=[N+]=Nc1ccccc1[C@@H]1OC(c2ccc(OCCCO)cc2)=N[C@]1(Cc1ccccc1)C(=O)NCCN1CCOCC1	composite z-score	0.952
Cc1ccc(S[C@]2(C(=O)NC3CC3)CC(=O)N(C(C)C)[C@@H]2c2ccc(CO)cc2I)cc1	composite z-score	0.101
COc1cc(CO)cc(I)c1O[C@H]1C=C(C(=O)NCCO)C[C@@H]2O[C@H]12	composite z-score	1.45
COc1ccc(CCNC(=O)[C@@H]2c3ccccc3C(=O)N(Cc3ccccc3OC)[C@H]2c2ccc(CO)cc2)cc1	composite z-score	0.172
COC(=O)[C@@]1(Cc2ccc(F)cc2)[C@H]2c3cc(C(=O)N4CCCC4)n(Cc4ccccn4)c3C[C@H]2CN1C(=O)c1ccccc1	composite z-score	0.156
CC(C)NC(=O)[C@@H]1c2ccccc2C(=O)N(Cc2ccccc2C(F)(F)F)[C@H]1c1ccc(CO)cc1	composite z-score	0.147
OCCCC1=CC(c2ccc(CN3CCCC3)cc2)N(Cc2cccc(OC(F)(F)F)c2)CC1 (configuration not stated)	composite z-score	0.0596
C=CC[C@@]1(C(=O)OC)N=C(c2ccc(OCCCO)cc2)O[C@@H]1c1ccccc1N=[N+]=[N-]	composite z-score	1.22
CCCc1cc2c(n1CCc1ccc(Cl)cc1)C(C)C1CN(C(=O)c3ccccc3)C(C)(C(=O)OC)C21 (configuration not stated)	composite z-score	0.252
COC(=O)C(CC#Cc1ccc2c(c1)[C@]1(C(=O)N2)[C@H](C(=O)N2CCc3cc(OC)c(OC)cc3C2)[C@H]2C(=O)O[C@H](c3ccccc3)[C@H](c3ccccc3)N2[C@@H]1c1ccccc1OCCO)C(=O)OC	composite z-score	1.28
CN(C)CCCCNC(=O)[C@H]1C[C@H]2C(=O)N3CCC[C@H]3C(=O)N2[C@H]1c1cccc(OCCO)c1	composite z-score	-0.0327
COCCOC(=O)N1C(=O)[C@@]2(c3ccccc31)[C@H](C(=O)N1CCN(c3ncccn3)CC1)[C@H]1C(=O)O[C@H](c3ccccc3)[C@H](c3ccccc3)N1[C@@H]2c1ccccc1OCCO	composite z-score	1.15
CCOC(=O)C1=CC[C@@H](c2ccc(OC)cc2)N(S(=O)(=O)c2ccc(C)cc2)[C@H]1c1ccc(C)cc1	composite z-score	0.887
COCCOC(=O)N1C(=O)[C@@]2(c3cc(C#CCC(C(=O)OC)C(=O)OC)ccc31)[C@H](C(N)=O)[C@H]1C(=O)O[C@H](c3ccccc3)[C@H](c3ccccc3)N1[C@@H]2c1ccc(O)cc1	composite z-score	1
Cc1ccc(N2C(=O)c3ccccc3[C@](C)(C(=O)NCCCN(C)C)[C@@H]2c2ccc(CO)cc2)nc1	composite z-score	-0.444
COCCOC(=O)N1C(=O)[C@@]2(c3cc(C#CCNC(N)=O)ccc31)[C@H](C(=O)Nc1nc3ccccc3s1)[C@H]1C(=O)O[C@H](c3ccccc3)[C@H](c3ccccc3)N1[C@@H]2c1ccccc1OCCO	composite z-score	1.05
COCCCNC(=O)[C@@H]1c2ccccc2C(=O)N(Cc2ccc(OC(F)(F)F)cc2)[C@H]1c1ccc(CO)cc1	composite z-score	0.481
C[N+](C)(C)CCCC[C@@H]1NC(=O)[C@H]2C[C@@H](C(=O)NCCCCCNC(=O)CS)[C@@H](c3cccc(OCCO)c3)N2C1=O	composite z-score	-0.664
O=C1C[C@@](C(=O)NCc2ccccc2)(c2ccc([N+](=O)[O-])cc2)[C@@H](c2ccc(CO)cc2)N1C1CCCCC1	composite z-score	0.645
C=C(CCCC)/C(=C/C[C@H](OC(=O)c1ccncc1)c1cccc(OCCO)c1)c1cnc2ccccc2c1	composite z-score	1.28
COC(=O)[C@@]1(Cc2ccc(OC)cc2)[C@H]2c3cc(C(=O)N4CCCC4)n(CCn4cc([N+](=O)[O-])nc4C)c3C[C@H]2CN1C(=O)c1ccccc1	composite z-score	0.354
C=CCOC(=O)[C@H]1[C@@H]2C(=O)O[C@@H](c3ccccc3)[C@@H](c3ccccc3)N2[C@@H](c2ccc(OCCOC(=O)[C@@H]3C[C@@H]4C(=O)N[C@@H](CCCC[N+](C)(C)C)C(=O)N4[C@@H]3c3ccc(O)cc3)cc2)[C@]12C(=O)Nc1ccc(I)cc12	composite z-score	1.21
COc1ccc([Si](C)(C)[C@@H]2[C@@H](CC(=O)N3CCC[C@H]3CO)O[C@]3(C(=O)N(Cc4cccc(N5CCCCC5=O)c4)c4ccccc43)[C@H]2C)cc1	composite z-score	0.747
COC(=O)[C@@]1(Cc2ccccc2)[C@H]2c3cc(C(=O)N(C)C)n(Cc4ccc(S(C)(=O)=O)cc4)c3C[C@H]2CN1C(=O)c1ccccc1	composite z-score	-0.0624
CC(C)[Si](C#CCCc1ccccc1)(O[C@H](c1ccccc1)c1cn(Cc2ccccc2)nn1)C(C)C	composite z-score	0.773
O=C1C2C=CC(C(O)C3CCCCC3)N(n3cnnc3)C2C(=O)N1Cc1ccccc1 (configuration not stated)	composite z-score	1.21
Cc1ccc(F)cc1S(=O)(=O)N[C@H]1CCN(Cc2ccc(OC(C)C)cc2)C1	composite z-score	0.195

###

- Tested on: Fibrinogen (Alexa647-labelled)
- test details: Alexa647-fibrinogen binding to printed small molecules – biochemical, small-molecule microarray, 635/667 nm fluorescence, artefact control for SMM control-protein annotation, profiling panel (AID 1131);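 note: z-score merges 667 nm fluorescence with per-spot signal-to-noise over triplicate slides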
- applied conditions: fibrinogen-A647 binding fluorescence, higher = more signal

compound smiles	composite z-score
COCCOC(=O)N1C(=O)[C@@]2(c3cc(C#CCC(C(=O)OC)C(=O)OC)ccc31)[C@H](C(N)=O)[C@H]1C(=O)O[C@H](c3ccccc3)[C@H](c3ccccc3)N1[C@@H]2c1ccc(O)cc1	0.92
CN(C)C(=O)[C@]1(Cc2ccccc2)N=C(c2ccc(OCCCO)cc2)O[C@@H]1c1ccccc1CN=[N+]=[N-]	1.02
O=C1O[C@H](Cc2ccccc2)[C@@H]2[C@H]3C=CCCC=C3CN2[C@H]1Cc1ccc(O)cc1	-2.73
COCCOC(=O)N1C(=O)[C@@]2(c3cc(C#CCCO)ccc31)[C@H](c1ccccc1OCCO)N1[C@H](c3ccccc3)[C@H](c3ccccc3)OC(=O)[C@H]1[C@@H]2C(N)=O	0.996
COC(=O)[C@@]1(Cc2ccc(OC)cc2)[C@H]2c3cc(C(=O)N4CCCC4)n(Cc4ccc(Cl)c(C(F)(F)F)c4)c3C[C@H]2CN1C(=O)c1ccccc1	0.972
C=C(CCCC)/C(=C/C[C@H](OC(=O)c1ccncc1)c1ccc(OCCO)cc1)c1cnc2ccccc2c1	0.892
